Kindly state residual activity for each of the entries shown.
- TARGET_OR_TEST_SYSTEM: CSNK2A1 (human) (UniProt P68400)
- Sequence (P68400 whole entry, looked up): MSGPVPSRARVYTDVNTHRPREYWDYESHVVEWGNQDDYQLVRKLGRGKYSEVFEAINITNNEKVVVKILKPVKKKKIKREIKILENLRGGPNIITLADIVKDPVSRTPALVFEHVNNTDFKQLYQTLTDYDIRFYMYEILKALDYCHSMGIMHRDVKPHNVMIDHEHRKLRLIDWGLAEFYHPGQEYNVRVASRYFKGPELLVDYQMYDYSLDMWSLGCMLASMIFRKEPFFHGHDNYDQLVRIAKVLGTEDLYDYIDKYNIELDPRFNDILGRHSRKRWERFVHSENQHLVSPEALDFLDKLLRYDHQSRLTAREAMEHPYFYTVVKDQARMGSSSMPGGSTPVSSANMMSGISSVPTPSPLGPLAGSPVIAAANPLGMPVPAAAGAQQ
- MEASUREMENT_NOTES: radiometric filter-binding kinase assay
- MEASUREMENT_CONTEXT: compound 10.0 µM
Enter your answer as a number in %; do not include the unit.

Req: Fill in: residual activity of O=C1NC(=S)N[C@@H]1Cc1c[nH]c2ccccc12 is ___
Resp: 93

Req: Now consider Cc1nc(-c2ccc(OCC(C)C)c(C#N)c2)sc1C(=O)O .
Resp: 71

Req: Here is the next molecule: O=C(O)c1cc(N=Nc2ccc(S(=O)(=O)Nc3ccccn3)cc2)ccc1O
Resp: 29

Req: // same read-out, input: O=c1c(O)c(-c2ccc(O)c(O)c2)oc2cc(O)c(O)c(O)c12
Resp: 7

Req: Same lookup for CCc1cncnc1N1CCN(Cc2nc3cc(C(F)(F)F)ccc3[nH]2)CC1 , please.
Resp: 83

Req: Same again, this time with Oc1ccc(/C=C/c2cc(O)cc(O)c2)cc1
Resp: 82

These entries and their values trace back to the kinase profiling compilation of Christmann-Franck et al. (2016).
